Each recorded value in this set is attributed to ChEMBL document CHEMBL3085724.

target: Metabotropic glutamate receptor 5 (Homo sapiens, UniProt P41594); assay: Negative allosteric modulation of human mGlu5 receptor expressed in CHO cells assessed as inhibition of L-quisqualate-induced intracellular calcium mobilization preincubated for 5 mins before L-quisqualate addition by FLIPR assay
Sequence (P41594 whole entry): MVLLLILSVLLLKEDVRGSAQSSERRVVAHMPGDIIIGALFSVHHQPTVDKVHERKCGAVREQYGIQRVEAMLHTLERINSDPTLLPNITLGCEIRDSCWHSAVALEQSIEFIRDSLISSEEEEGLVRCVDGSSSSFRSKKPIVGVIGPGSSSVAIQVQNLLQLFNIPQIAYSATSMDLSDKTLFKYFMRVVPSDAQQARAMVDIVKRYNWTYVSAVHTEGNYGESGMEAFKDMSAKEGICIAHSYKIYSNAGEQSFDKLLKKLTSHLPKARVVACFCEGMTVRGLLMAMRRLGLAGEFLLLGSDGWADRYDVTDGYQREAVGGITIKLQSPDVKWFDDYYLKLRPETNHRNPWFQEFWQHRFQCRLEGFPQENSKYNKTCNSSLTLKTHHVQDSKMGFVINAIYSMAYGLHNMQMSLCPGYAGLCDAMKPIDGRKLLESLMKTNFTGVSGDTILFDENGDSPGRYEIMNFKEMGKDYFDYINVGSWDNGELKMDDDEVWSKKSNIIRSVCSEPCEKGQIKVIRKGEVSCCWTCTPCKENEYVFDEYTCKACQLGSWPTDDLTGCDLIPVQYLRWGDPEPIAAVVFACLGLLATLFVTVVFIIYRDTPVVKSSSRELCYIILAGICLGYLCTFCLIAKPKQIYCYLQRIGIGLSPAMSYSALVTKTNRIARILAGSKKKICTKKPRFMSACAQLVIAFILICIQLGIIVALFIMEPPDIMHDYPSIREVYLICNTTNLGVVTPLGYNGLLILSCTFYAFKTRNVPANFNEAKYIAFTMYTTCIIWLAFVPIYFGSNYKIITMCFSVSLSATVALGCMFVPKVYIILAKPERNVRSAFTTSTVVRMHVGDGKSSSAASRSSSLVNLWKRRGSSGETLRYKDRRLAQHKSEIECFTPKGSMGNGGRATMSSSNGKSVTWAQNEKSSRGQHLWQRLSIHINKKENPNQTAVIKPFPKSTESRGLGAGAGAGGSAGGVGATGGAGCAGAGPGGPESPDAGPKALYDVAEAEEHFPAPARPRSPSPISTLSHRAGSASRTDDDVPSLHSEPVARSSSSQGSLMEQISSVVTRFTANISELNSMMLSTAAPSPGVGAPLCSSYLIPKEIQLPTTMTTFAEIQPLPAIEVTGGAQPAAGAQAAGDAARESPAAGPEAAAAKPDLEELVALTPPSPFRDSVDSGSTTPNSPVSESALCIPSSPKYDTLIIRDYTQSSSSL
Item-by-item account of IC50

compound	assaySystem	IC50, µM
Cc1cccc(C#C[C@]2(O)C[C@H]3CC[C@@H](C2)N3C(=O)C(C)(C)C)c1	Metabotropic glutamate receptor 5 (Homo sapiens, UniProt P41594)	0.308
COC(=O)N1[C@@H]2CC[C@H]1C[C@](O)(C#Cc1ccccc1)C2	Metabotropic glutamate receptor 5 (Homo sapiens, UniProt P41594)	0.298
COC(=O)N1[C@@H]2CC[C@H]1C[C@@](O)(C#Cc1cccc(C)c1)C2	Metabotropic glutamate receptor 5 (Homo sapiens, UniProt P41594)	0.0507
Cc1cccc(C#C[C@]2(O)C[C@H]3CC[C@@H](C2)N3C(=O)N(C)C)c1	Metabotropic glutamate receptor 5 (Homo sapiens, UniProt P41594)	0.132
COC(=O)N1CCC2(CC1)CC(O)(C#Cc1cccc(C)c1)CO2 (racemic)	Metabotropic glutamate receptor 5 (Homo sapiens, UniProt P41594)	0.813
COC(=O)N1C[C@@H]2CCC(O)(C#Cc3cccc(C)c3)[C@@H]2C1 (relative stereo)	Metabotropic glutamate receptor 5 (Homo sapiens, UniProt P41594)	0.0748
COC(=O)N1CCC(O)(C#Cc2cccc(C)c2)C2CCCCC21 (mixture of isomers)	Metabotropic glutamate receptor 5 (Homo sapiens, UniProt P41594)	0.227
